Molecular target: S29A PncC (Escherichia coli, UniProt P0A6G3, S29A)
Construct: made in house; host or cells: E. coli BL21(DE3)
Sequence (P0A6G3 whole entry S29A): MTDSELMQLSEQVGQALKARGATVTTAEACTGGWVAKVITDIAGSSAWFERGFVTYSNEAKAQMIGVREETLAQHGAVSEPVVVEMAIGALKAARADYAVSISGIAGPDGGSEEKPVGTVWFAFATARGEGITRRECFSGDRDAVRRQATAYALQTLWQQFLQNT
Assay type: binding, E. coli
Conditions: nucleotide 3 µM
Threshold-based label: S29A PncC fluorescence quenching (%) vs buffer under 2% gives T, S29A PncC fluorescence quenching (%) vs buffer not under 2% gives F.

QUERY: Please check: S29A PncC fluorescence quenching (%) vs buffer for NC(=O)c1cccnc1 [Nam, nicotinamide] , strictly under 2% or not?
RESULT: F

QUERY: Please check: S29A PncC fluorescence quenching (%) vs buffer for NC(=O)c1ccc[n+]([C@@H]2O[C@H](COP(=O)([O-])OP(=O)(O)OC[C@H]3O[C@@H](n4cnc5c(N)ncnc54)[C@H](O)[C@@H]3O)[C@@H](O)[C@H]2O)c1 [NAD, nicotinamide adenine dinucleotide] , strictly under 2% or not?
RESULT: T

QUERY: Please check: S29A PncC fluorescence quenching (%) vs buffer for NC(=O)c1ccc[n+]([C@@H]2O[C@H](COP(=O)([O-])O)[C@@H](O)[C@H]2O)c1 [NMN, nicotinamide mononucleotide] , strictly under 2% or not?
RESULT: F

QUERY: Please check: S29A PncC fluorescence quenching (%) vs buffer for NC(=O)c1ccc[n+]([C@@H]2O[C@H](COP(=O)(O)OP(=O)([O-])OC[C@H]3O[C@@H](n4cnc5c(N)ncnc54)[C@H](OP(=O)(O)O)[C@@H]3O)[C@@H](O)[C@H]2O)c1 [NADP] , strictly under 2% or not?
RESULT: F

QUERY: Please check: S29A PncC fluorescence quenching (%) vs buffer for O=C(O)c1cccnc1 [Na, nicotinic acid] , strictly under 2% or not?
RESULT: T

QUERY: Please check: S29A PncC fluorescence quenching (%) vs buffer for O=C(O)c1ccc[n+]([C@@H]2O[C@H](COP(=O)([O-])O)[C@@H](O)[C@H]2O)c1 [NaMN, nicotinic acid mononucleotide] , strictly under 2% or not?
RESULT: F

QUERY: Please check: S29A PncC fluorescence quenching (%) vs buffer for Nc1ncnc2c1ncn2[C@@H]1O[C@H](COP(=O)(O)OP(=O)([O-])OC[C@H]2O[C@@H]([n+]3cccc(C(=O)O)c3)[C@H](O)[C@@H]2O)[C@@H](O)[C@H]1O [NaAD, nicotinic acid adenine dinucleotide] , strictly under 2% or not?
RESULT: T

QUERY: Please check: S29A PncC fluorescence quenching (%) vs buffer for NC(=O)c1ccc[n+]([C@@H]2O[C@H](CO)[C@@H](O)[C@H]2O)c1 [NR, nicotinamide riboside] , strictly under 2% or not?
RESULT: T

====

Target: S29A PncC (Escherichia coli, UniProt P0A6G3, S29A)
Construct: made in house; host or cells: E. coli BL21(DE3)
Format: binding, E. coli
Settings: nucleotide 12 µM
Threshold-based label: S29A PncC fluorescence quenching (%) vs buffer under 2% gives Fulfilled, S29A PncC fluorescence quenching (%) vs buffer not under 2% gives Not fulfilled.

QUERY: Please check: S29A PncC fluorescence quenching (%) vs buffer for O=C(O)c1cccnc1 [Na, nicotinic acid] , strictly under 2% or not?
RESULT: Fulfilled

QUERY: Please check: S29A PncC fluorescence quenching (%) vs buffer for NC(=O)c1ccc[n+]([C@@H]2O[C@H](COP(=O)(O)OP(=O)([O-])OC[C@H]3O[C@@H](n4cnc5c(N)ncnc54)[C@H](OP(=O)(O)O)[C@@H]3O)[C@@H](O)[C@H]2O)c1 [NADP] , strictly under 2% or not?
RESULT: Not fulfilled

QUERY: Please check: S29A PncC fluorescence quenching (%) vs buffer for NC(=O)c1ccc[n+]([C@@H]2O[C@H](COP(=O)([O-])O)[C@@H](O)[C@H]2O)c1 [NMN, nicotinamide mononucleotide] , strictly under 2% or not?
RESULT: Not fulfilled

QUERY: Please check: S29A PncC fluorescence quenching (%) vs buffer for NC(=O)c1ccc[n+]([C@@H]2O[C@H](COP(=O)([O-])OP(=O)(O)OC[C@H]3O[C@@H](n4cnc5c(N)ncnc54)[C@H](O)[C@@H]3O)[C@@H](O)[C@H]2O)c1 [NAD, nicotinamide adenine dinucleotide] , strictly under 2% or not?
RESULT: Fulfilled

QUERY: Please check: S29A PncC fluorescence quenching (%) vs buffer for NC(=O)c1cccnc1 [Nam, nicotinamide] , strictly under 2% or not?
RESULT: Not fulfilled

QUERY: Please check: S29A PncC fluorescence quenching (%) vs buffer for Nc1ncnc2c1ncn2[C@@H]1O[C@H](COP(=O)(O)OP(=O)([O-])OC[C@H]2O[C@@H]([n+]3cccc(C(=O)O)c3)[C@H](O)[C@@H]2O)[C@@H](O)[C@H]1O [NaAD, nicotinic acid adenine dinucleotide] , strictly under 2% or not?
RESULT: Fulfilled

QUERY: Please check: S29A PncC fluorescence quenching (%) vs buffer for NC(=O)c1ccc[n+]([C@@H]2O[C@H](CO)[C@@H](O)[C@H]2O)c1 [NR, nicotinamide riboside] , strictly under 2% or not?
RESULT: Not fulfilled

QUERY: Please check: S29A PncC fluorescence quenching (%) vs buffer for O=C(O)c1ccc[n+]([C@@H]2O[C@H](COP(=O)([O-])O)[C@@H](O)[C@H]2O)c1 [NaMN, nicotinic acid mononucleotide] , strictly under 2% or not?
RESULT: Not fulfilled

Data provenance: paper PMC8231969
